hGLP-1R CRE Luc EC50 (pM) by entry:
Target: human glucagon-like peptide 1 receptor (human, UniProt P43220 24-463)
Assay: cell-based or functional assay
Where no end group is shown, it is not given here. [ ]: non-standard residue; d: D form. Aib = CC(C)(N)C(=O)O

binder	unit.spec	hGLP-1R CRE Luc EC50 (pM)
H[Aib]QGTFTSDYSIYLEKQAA[Aib]EFVQWLLEGGPSSGAPPPS-NH2 (not fully specified (residue 16); printed as H-Aib-QGTFTSDYSIYLE-K[(2S)-2-amino-6-[[(2S)-2-amino-6-[[(4S)-4-carboxy-4-(19-carboxynonadecanoylamino)butanoyl]amino]hexanoyl]amino]hexanoyl]-QAA-Aib-EFVQWLLEGGPSSGAPPPS-NH2) [Compound No. 19]	pM	1.7
H[Aib]HGTFTSDYSKYLEKQAA[Aib]EFVQWLLEGGPSSGAPPPS-NH2 (not fully specified (residue 16); printed as H-Aib-HGTFTSDYSKYLE-K[(2S)-2-amino-6-[[(2S)-2-amino-6-[[(4S)-4-carboxy-4-(19-carboxynonadecanoylamino)butanoyl]amino]hexanoyl]amino]hexanoyl]-QAA-Aib-EFVQWLLEGGPSSGAPPPS-NH2) [Compound No. 36]	pM	1.8
H[Aib]HGTFTSDYSIYLEKQAA[Aib]EFVQWLLEGGPSSGAPPPS-NH2 (not fully specified (residue 16); printed as H-Aib-HGTFTSDYSIYLE-K[2-[2-[2-[[2-[2-[2-[[(4S)-4-carboxy-4-(19-carboxynonadecanoylamino)butanoyl]amino]ethoxy]ethoxy]acetyl]amino]ethoxy]ethoxy]acetyl]-QAA-Aib-EFVQWLLEGGPSSGAPPPS-NH2) [Compound No. 44]	pM	1.8
Y[Aib]QGTFTSDYSIYLEKQAA[Aib]KFVQWLLEGGPSSGAPPPS-NH2 (not fully specified (residue 21)) [Compound No. 11]	pM	4.3
H[Aib]HGTFTSDYSILLEKQAAEEFVQWLLEGGPSSGAPPPS-OH (not fully specified (residue 16); printed as H-Aib-HGTFTSDYSILLE-K[(2S)-2-amino-6-[[(2S)-2-amino-6-[[(4S)-4-carboxy-4-(17-carboxyheptadecanoylamino)butanoyl]amino]hexanoyl]amino]hexanoyl]-QAAEEFVQWLLEGGPSSGAPPPS-OH) [Compound No. 51]	pM	0.7
Y[Aib]QGTFTSDYSIYLDKQAA[Aib]EFVNWLLAGGPSSGAPPPS-NH2 (not fully specified (residue 16); printed as Y-Aib-QGTFTSDYSIYLD-K[2-[2-[2-[[2-[2-[2-[[(4S)-4-carboxy-4-(17-carboxyheptadecanoylamino)butanoyl]amino]ethoxy]ethoxy]acetyl]amino]ethoxy]ethoxy]acetyl]-QAA-Aib-EFVNWLLAGGPSSGAPPPS-NH2) [Compound No. 1]	pM	8.6
H[Aib]HGTFTSDYSYLLEKQAA[Aib]EFVQWLLEGGPSSGAPPPS-NH2 (not fully specified (residue 16); printed as H-Aib-HGTFTSDYSYLLE-K[(2S)-2-amino-6-[[(2S)-2-amino-6-[[(4S)-4-carboxy-4-(19-carboxynonadecanoylamino)butanoyl]amino]hexanoyl]amino]hexanoyl]-QAA-Aib-EFVQWLLEGGPSSGAPPPS-NH2) [Compound No. 42]	pM	1.9
H[Aib]HGTFTSDYSIYLEKKYA[Aib]EFVQWLLEGGPSSGAPPPS-NH2 (not fully specified (residue 16); printed as H-Aib-HGTFTSDYSIYLE-K[(2S)-2-amino-6-[[(2S)-2-amino-6-[[(4S)-4-carboxy-4-(19-carboxynonadecanoylamino)butanoyl]amino]hexanoyl]amino]hexanoyl]-KYA-Aib-EFVQWLLEGGPSSGAPPPS-NH2) [Compound No. 30]	pM	3.9
H[Aib]HGTFTSDYSILLEKQAAHEFVQWLLEGGPSSGAPPPS-OH (not fully specified (residue 16); printed as H-Aib-HGTFTSDYSILLE-K[(2S)-2-amino-6-[[(2S)-2-amino-6-[[(4S)-4-carboxy-4-(17-carboxyheptadecanoylamino)butanoyl]amino]hexanoyl]amino]hexanoyl]-QAAHEFVQWLLEGGPSSGAPPPS-OH) [Compound No. 56]	pM	1.1
